- experimental-protocol: ATG_M_19_CIS: Attagene CIS-FACTORIAL HepG2 Assay for M19 Transcription Factor (Internal Marker) (AID 2282939)
- experimental-conditions: HepG2 Attagene CIS-FACTORIAL M19 internal marker reporter; actives raise or lower the signal
Activity calls are given as the source filed them. Rule for the calls: active = hit-call score of the fitted dose curve at least 0.9, where 1 is the maximum; inactive = score below 0.9.
measure: outcome

# example entries with known answers
CC1(C)C(C=C(Cl)Cl)C1C(=O)OCc1cccc(Oc2ccccc2)c1 (stereo unspecified)    inactive
OB(O)O    inactive
COC(=O)c1ccccc1S(=O)(=O)NC(=O)Nc1nc(OC(F)F)cc(OC(F)F)n1    inactive
CCCCCCC(C)OC(=O)COc1nc(F)c(Cl)c(N)c1Cl (stereo unspecified)    inactive
CCCCCOC(=O)COc1cc(N2C(=O)C3=C(CCCC3)C2=O)c(F)cc1Cl    inactive

Please look up its outcome: CCCCC(CC)CN1C(=O)C2C3C=CC(C3)C2C1=O (stereo unspecified)
inactive

Cited source: PubChem BioAssay (EPA / NIEHS)
